studySystem: Glucocorticoid receptor (Homo sapiens)
experimentNotes: qHTS assay to identify small molecule agonists of the glucocorticoid receptor (GR) signaling pathway (AID 720691); note: % is set by controls: 0 for no effect and ±100 for the full control effect
setupConditions: GR-bla HeLa, beta-lactamase reporter ratio, 18 h; series mostly up to 62.4 µM
Inconclusive results are not listed. Active and inactive are the calls of the source. Calls come from the whole dose curve; as a rule, active = well fitted activation curve with a large enough effect in the signal ratio in the repeat runs (not every such curve was filed as active); inconclusive = weak or mixed curves, or effect the other way; inactive = no such curve, though single readings can be large or run the other way; the % refers to the signal ratio.
property: outcome

Use these answered entries as a reference point.
| compound | outcome |
| --- | --- |
| O=C(O[C@@H]1Cc2c(O)cc(O)cc2O[C@@H]1c1cc(O)c(O)c(O)c1)c1cc(O)c(O)c(O)c1 | inactive |
| O=C(O)c1cccc(C(=O)O)c1 | inactive |
| CCN(CC)C(=O)Nc1ccc(OCC(O)CNC(C)(C)C)c(C(C)=O)c1 (stereo not drawn) | inactive |
| O=C(O)CCc1ccccc1 | inactive |
| CC(C)(C)NC(=O)[C@@H]1CN(Cc2cccnc2)CCN1C[C@@H](O)C[C@@H](Cc1ccccc1)C(=O)N[C@H]1c2ccccc2C[C@H]1O | inactive |
| CCCC(=O)c1ccccc1 | inactive |

For the 3 compounds below, give their outcome values.
1. CCCCC(CC)COC(=O)CC(C(=O)OCC(CC)CCCC)S(=O)(=O)O (stereo not drawn)
2. CNC1(C)C2CCC(C2)C1(C)C (stereo not drawn)
3. OCC(CO)N[C@H]1C[C@](O)(CO)[C@@H](O)[C@H](O)[C@H]1O

(A)
["inactive", "inactive", "inactive"]

For the 3 compounds below, give their outcome values.
1. c1ccc2n[nH]nc2c1
2. CCOC(=O)C(C)C(C)=O (stereo not drawn)
3. CC(C)(C)c1cc(C(C)(C)C)c(O)c(C(C)(C)C)c1

(A)
inactive
inactive
inactive

For the 8 compounds below, give their outcome values.
1. Cc1cccc([N+](=O)[O-])c1C(=O)O
2. [Cl][In]([Cl])[Cl]
3. Clc1ccc2c(c1)C(N1CCNCC1)=Nc1ccccc1O2
4. CCC(C)(Oc1ccc(C2(c3ccc(OC(C)(CC)C(=O)O)cc3)CCCCC2)cc1)C(=O)O (stereo not drawn)
5. CC[C@]1(O)C[C@@H]2CN(CCc3c([nH]c4ccccc34)[C@@](C(=O)OC)(c3cc4c(cc3OC)N(C)[C@H]3[C@@](O)(C(=O)OC)[C@H](OC(C)=O)[C@]5(CC)C=CCN6CC[C@]43[C@@H]65)C2)C1
6. C[N+]1([O-])CCOCC1
7. CCCOC(=O)c1cc(O)c(O)c(O)c1
8. COC(=O)/C=C/c1ccccc1

(A)
inactive
inactive
inactive
inactive
inactive
inactive
inactive
inactive

For the 3 compounds below, give their outcome values.
1. CCC(=O)/C=C/C1C(C)=CCCC1(C)C (stereo not drawn)
2. NC12CC3CC(CC(C3)C1)C2
3. CCC[C@H](N[C@@H](C)C(=O)N1[C@H](C(=O)O)C[C@@H]2CCCC[C@@H]21)C(=O)OCC

(A)
1. inactive
2. inactive
3. inactive

###

experimentNotes: qHTS assay to identify small molecule antagonists of the glucocorticoid receptor (GR) signaling pathway - cell viability counter screen (AID 720693); note: % is set by controls: 0 for no effect and ±100 for the full control effect; nearly all actives have a fitted effect of over 55% in size
setupConditions: GR-bla HeLa viability, CellTiter-Glo luminescence, 18 h, with 5 nM dexamethasone present; series mostly up to 58.5 µM
Source text: National Center for Advancing Translational Sciences [NCATS] NIH Chemical Genomics Center [NCGC] U.S. Environmental Protection Agency [EPA] National Institutes of Environmental Health Sciences [NIEHS] National Toxicology Program [NTP] U.S. Food and Drug Administration [FDA] The Glucocorticoid receptor (GR) is one of the members of the nuclear receptor family of ligand-dependent transcription factors. […] The activation of the reporter gene under culture conditions can be detected by fluorescence intensity. […]
Results filed as inconclusive are left out. Activity calls are given as the source filed them. Calls follow the shape of the dose curve; as a rule, active = well fitted cell-killing curve with a large enough effect in the repeat runs; inconclusive = weak or mixed curves, or effect the other way; inactive = no such curve, though single readings can be large or run the other way.
I would appreciate it if you answered using one of these outcomes: 1 (active), -1 (inactive)

Examples with answers:
| compound | labelClass |
| --- | --- |
| O=C(O)CP(=O)(O)O | -1 |
| c1ccc2n[nH]nc2c1 | -1 |
| COc1ccc(Cc2cnc(N)nc2N)cc1OC | -1 |
| CC(C)(C)NC(=O)[C@@H]1CN(Cc2cccnc2)CCN1C[C@@H](O)C[C@@H](Cc1ccccc1)C(=O)N[C@H]1c2ccccc2C[C@H]1O | -1 |
| c1cnc2cc3c(cc2n1)C1CNCC3C1 | -1 |

(Q) Field: outcome | Entry: CC(=O)CC(C)=O
(A) -1

(Q) Field: outcome | Entry: CCN(CC)C(=S)SSC(=S)N(CC)CC
(A) -1

(Q) Field: outcome | Entry: OCCOCCN1CCN(C(c2ccccc2)c2ccc(Cl)cc2)CC1 (stereo not drawn)
(A) -1

###

experimentNotes: qHTS assay to identify aromatase inhibitors - cell viability counter screen (AID 743084);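 note: cells stimulated with testosterone during compound exposure; nearly all actives have a fitted effect of over 55% in size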
setupConditions: MCF-7 aro ERE viability, CellTiter-Fluor, 24 h; series mostly up to 70.3 µM
Inconclusive results are not listed. Activity calls are given as the source filed them. The call rests on the fitted dose curve; in most records, active means well fitted cell-killing curve with a large enough effect in the repeat runs; inconclusive means weak or mixed curves, or effect the other way; inactive means no such curve, though single readings can be large or run the other way.
I would appreciate it if you answered using one of these outcomes: y for active, n for inactive

Examples with answers:
| compound | labelClass |
| --- | --- |
| CC(N)=O | n |
| CC(COc1ccccc1)N(CCCl)Cc1ccccc1 (centres undefined) | n |
| CCC[C@H](N[C@@H](C)C(=O)N1[C@H](C(=O)O)C[C@@H]2CCCC[C@@H]21)C(=O)OCC | n |
| CC[C@@H](N)CO | n |
| NNCCc1ccccc1 | n |

(Q) Field: outcome | Entry: C=CC(=O)OCCCCCCCC
(A) n

(Q) Field: outcome | Entry: CCn1cc(C(=O)O)c(=O)c2cc(F)c(N3CCNC(C)C3)c(F)c21 (centres undefined)
(A) n

(Q) Field: outcome | Entry: CCCNC(C)C(=O)Nc1ccccc1C (centres undefined)
(A) n

(Q) Field: outcome | Entry: Cc1cccc([N+](=O)[O-])c1C(=O)O
(A) n

(Q) Field: outcome | Entry: NC(N)=Nc1nc(CSCC/C(N)=N/S(N)(=O)=O)cs1
(A) n

(Q) Field: outcome | Entry: O=Cc1ccc(Cl)cc1
(A) n

(Q) Field: outcome | Entry: CN(C)c1ccc(C(=C2C=CC(=[N+](C)C)C=C2)c2ccccc2)cc1
(A) y

(Q) Field: outcome | Entry: CCC(=O)/C=C/C1C(C)=CCCC1(C)C (centres undefined)
(A) n

(Q) Field: outcome | Entry: O
(A) n

###

experimentNotes: qHTS assay to identify small molecule antagonists of the androgen receptor (AR) signaling pathway using the MDA cell line in the presence of 0.5 nM R1881 - cell viability counter screen (AID 1259242); note: nearly all actives have a fitted effect of over 45% in size
setupConditions: MDA-kb2 viability, CellTiter-Fluor protease fluorescence, 16 h; series mostly up to 92.4 µM
Inconclusive results are not listed. Calls of active or inactive are those of the source. Calls come from the whole dose curve; as a rule, active = well fitted cell-killing curve with a large enough effect in the repeat runs; inconclusive = weak or mixed curves, or effect the other way; inactive = flat fitted curve, though single readings scatter.
I would appreciate it if you answered using one of these outcomes: active, inactive

Examples with answers:
| molecule | labelClass |
| --- | --- |
| CCCCCC(=O)O[C@]1(C(C)=O)CC[C@H]2[C@@H]3CCC4=CC(=O)CC[C@]4(C)[C@H]3CC[C@@]21C | active |
| CCN(CC)C(=O)Nc1ccc(OCC(O)CNC(C)(C)C)c(C(C)=O)c1 (centres undefined) | inactive |
| CC(C)(C)c1ccccc1 | inactive |
| CCOc1ccccc1C(N)=O | inactive |
| Cc1cccc2n[nH]nc12 | inactive |

(Q) Field: outcome | Entry: CCCCCCC(O)CCCCCCCCCCC(=O)O (centres undefined)
(A) inactive

###

studySystem: Cytochrome P450 2C19 (Homo sapiens) (UniProt P33261)
Sequence (P33261 whole entry, looked up): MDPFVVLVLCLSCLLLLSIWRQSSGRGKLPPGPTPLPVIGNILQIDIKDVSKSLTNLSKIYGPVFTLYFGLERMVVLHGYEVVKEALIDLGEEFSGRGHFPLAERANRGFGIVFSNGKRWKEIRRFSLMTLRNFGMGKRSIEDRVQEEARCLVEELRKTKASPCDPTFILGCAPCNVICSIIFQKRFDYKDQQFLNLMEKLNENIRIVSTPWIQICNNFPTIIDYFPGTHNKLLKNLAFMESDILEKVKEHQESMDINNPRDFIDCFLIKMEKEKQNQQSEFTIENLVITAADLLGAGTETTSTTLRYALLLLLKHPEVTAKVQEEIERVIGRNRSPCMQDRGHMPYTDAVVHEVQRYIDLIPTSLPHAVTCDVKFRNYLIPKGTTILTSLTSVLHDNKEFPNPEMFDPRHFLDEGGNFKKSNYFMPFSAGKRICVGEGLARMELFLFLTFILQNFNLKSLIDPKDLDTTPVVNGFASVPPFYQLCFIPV
experimentNotes: Cytochrome P450 Family 2 Subfamily C Member 19 (CYP2C19) small molecule antagonists: luciferase reporter qHTS assay (AID 1671197); note: nearly all actives have a fitted effect of over 65% in size
setupConditions: P450-Glo CYP2C19 enzyme, luciferin luminescence, 1 h; series mostly up to 115 µM
Inconclusive results are not listed. Active and inactive are the calls of the source. Calls come from the whole dose curve; as a rule, active = well fitted inhibition curve with a large enough effect in the repeat runs; inconclusive = weak or mixed curves; inactive = no such curve, though single readings can be large or run the other way.
I would appreciate it if you answered using one of these outcomes: active, inactive

Examples with answers:
| molecule | labelClass |
| --- | --- |
| NC(N)=NC(=O)Cc1c(Cl)cccc1Cl | inactive |
| c1ccc2cc3c(ccc4ccccc43)cc2c1 | active |

Kindly review the next molecule as well.
(Q) Field: outcome | Entry: O=c1n(CC2CO2)c(=O)n(CC2CO2)c(=O)n1CC1CO1 (centres undefined)
(A) inactive

###

experimentNotes: qHTS RealTime-Glo MT Cell Viability Assay in HEK293 cells - 16 hour (AID 1224872); note: top concentration of the series differs between compounds; % is set by controls: 0 for no effect and ±100 for the full control effect; nearly all actives have a fitted effect of over 50% in size
setupConditions: RealTime-Glo luminescence; series mostly up to 76.8 µM
Inconclusive results are not listed. The source made the active and inactive calls. Calls come from the whole dose curve; as a rule, active = well fitted cell-killing curve with a large enough effect in the repeat runs; inconclusive = weak or mixed curves, or effect the other way; inactive = flat fitted curve, though single readings scatter.
I would appreciate it if you answered using one of these outcomes: active, inactive

Examples with answers:
| molecule | labelClass |
| --- | --- |
| CCC(CO)(CO)COCC(CC)(CO)CO | inactive |
| O=C(O)CCc1ccccc1 | inactive |
| COc1ccc(Cc2cnc(N)nc2N)cc1OC | inactive |
| c1cc(C(c2ccc(OCC3CO3)cc2)C(c2ccc(OCC3CO3)cc2)c2ccc(OCC3CO3)cc2)ccc1OCC1CO1 (configuration not stated) | inactive |
| O=C(OCc1ccccc1)c1ccc(O)cc1 | inactive |

(Q) Field: outcome | Entry: C/C=C/c1ccc(OCC)c(O)c1
(A) inactive

(Q) Field: outcome | Entry: CN1C(=O)c2ccc([N+](=O)[O-])cc2C1=O
(A) inactive
